For each record, write down the corresponding IC50.
- target-under-test: DRB3*0101 (Homo sapiens, UniProt P01903+P79483)
- protocol-summary: biochemical
- Format: binding
Answers are plain numbers, in µM.

Recorded IC50, per entry:
CC(C)[C@H](NC(=O)[C@H](CCC(=O)O)NC(=O)[C@H](Cc1ccc(O)cc1)NC(=O)[C@H](CO)NC(=O)CNC(=O)[C@H](Cc1c[nH]cn1)NC(=O)[C@H](Cc1ccc(O)cc1)NC(=O)[C@H](C)NC(=O)[C@H](Cc1c[nH]c2ccccc12)NC(=O)[C@@H](N)[C@@H](C)O)C(=O)N[C@@H](CCCCN)C(=O)N[C@@H](C)C(=O)N[C@H](C(=O)NCC(=O)N[C@@H](CO)C(=O)N[C@@H](C)C(=O)O)[C@@H](C)O; 0.536
CC[C@H](C)[C@H](N)C(=O)N[C@@H](Cc1ccccc1)C(=O)N[C@@H](CCSC)C(=O)N[C@H](C(=O)N[C@@H](C)C(=O)N[C@H](C(=O)N1CCC[C@H]1C(=O)N1CCC[C@H]1C(=O)NCC(=O)N[C@H](C(=O)N[C@@H](C)C(=O)N[C@@H](CC(=O)O)C(=O)N[C@@H](C)C(=O)N[C@@H](Cc1ccccc1)C(=O)N1CCC[C@H]1C(=O)O)[C@@H](C)O)[C@@H](C)O)[C@@H](C)O; 9.44
CC[C@H](C)[C@H](N)C(=O)N[C@@H](CC(=O)O)C(=O)N[C@@H](CC(=O)O)C(=O)N[C@@H](CCCNC(=N)N)C(=O)N[C@@H](Cc1ccccc1)C(=O)N[C@@H](C)C(=O)N[C@@H](CC(N)=O)C(=O)N[C@@H](C)C(=O)N[C@@H](CC(C)C)C(=O)N[C@@H](CC(C)C)C(=O)N[C@@H](C)C(=O)N[C@@H](CC(C)C)C(=O)N[C@@H](CC(N)=O)C(=O)N[C@@H](CC(=O)O)C(=O)N[C@@H](CCSC)C(=O)NCC(=O)N[C@@H](CCCCN)C(=O)O; 7.5

Quick request: IC50 for each listed item, please.
1. CC[C@H](C)[C@H](NC(=O)[C@H](CC(C)C)NC(=O)[C@H](CCC(=O)O)NC(=O)[C@H](Cc1c[nH]cn1)NC(=O)[C@H](Cc1ccccc1)NC(=O)[C@H](Cc1c[nH]cn1)NC(=O)[C@H](Cc1c[nH]cn1)NC(=O)[C@H](CO)NC(=O)[C@H](CS)NC(=O)[C@H](Cc1ccccc1)NC(=O)[C@@H]1CCCN1C(=O)[C@@H](NC(=O)[C@H](CCC(N)=O)NC(=O)[C@H](CCC(N)=O)NC(=O)[C@H](Cc1c[nH]c2ccccc12)NC(=O)[C@@H](N)CC(=O)O)C(C)C)C(=O)N[C@@H](CCSC)C(=O)O
2. CC[C@H](C)[C@H](NC(=O)[C@H](CCCCN)NC(=O)[C@H](C)NC(=O)[C@H](CCCCN)NC(=O)CNC(=O)[C@H](Cc1c[nH]c2ccccc12)NC(=O)[C@@H](N)[C@@H](C)O)C(=O)N[C@H](C(=O)N[C@H](C(=O)N[C@@H](C)C(=O)N[C@@H](CCC(=O)O)C(=O)N[C@H](C(=O)N[C@@H](CCC(N)=O)C(=O)N[C@@H](CC(N)=O)C(=O)N[C@@H](CO)C(=O)O)[C@@H](C)O)[C@@H](C)O)C(C)C
3. CC[C@H](C)[C@H](NC(=O)[C@H](CC(C)C)NC(=O)[C@H](CO)NC(=O)CNC(=O)[C@H](CS)NC(=O)[C@H](Cc1c[nH]c2ccccc12)NC(=O)[C@H](CCC(N)=O)NC(=O)[C@H](CC(=O)O)NC(=O)[C@H](CCC(=O)O)NC(=O)[C@H](CCCNC(=N)N)NC(=O)[C@H](CCCCN)NC(=O)CNC(=O)[C@H](CC(C)C)NC(=O)[C@@H](N)Cc1ccc(O)cc1)C(=O)NCC(=O)N[C@@H](CC(C)C)C(=O)N[C@H](C(=O)O)[C@@H](C)O
4. CC[C@H](C)[C@H](NC(=O)[C@@H](NC(=O)[C@H](CC(=O)O)NC(=O)[C@H](CCSC)NC(=O)[C@@H](NC(=O)[C@@H](NC(=O)CNC(=O)[C@H](CCCCN)NC(=O)[C@@H]1CCCN1C(=O)[C@@H](NC(=O)[C@@H]1CCCN1C(=O)[C@H](CCCNC(=N)N)NC(=O)[C@H](CCC(N)=O)NC(=O)[C@@H](NC(=O)[C@H](CCCCN)NC(=O)[C@@H](NC(=O)[C@@H](N)C(C)C)C(C)C)C(C)C)[C@@H](C)O)[C@@H](C)O)C(C)C)[C@@H](C)CC)C(=O)O

1: 4.74; 2: 0.534; 3: 0.079; 4: 2.91

Quick request: IC50 for each listed item, please.
1. CC[C@H](C)[C@H](N)C(=O)N[C@H](C(=O)N[C@H](C(=O)NCC(=O)N[C@H](C(=O)NCC(=O)N[C@@H](CC(=O)O)C(=O)N[C@@H](CC(N)=O)C(=O)N[C@@H](C)C(=O)N[C@@H](CC(C)C)C(=O)N[C@@H](CCCCN)C(=O)N[C@H](C(=O)N[C@@H](CC(N)=O)C(=O)N[C@@H](Cc1c[nH]c2ccccc12)C(=O)N[C@@H](Cc1ccc(O)cc1)C(=O)O)[C@@H](C)CC)[C@@H](C)CC)[C@@H](C)CC)C(C)C
2. CC[C@H](C)[C@H](NC(=O)[C@H](Cc1ccc(O)cc1)NC(=O)CNC(=O)[C@H](CCCNC(=N)N)NC(=O)[C@H](C)N)C(=O)N[C@@H](CO)C(=O)N[C@H](C(=O)N[C@@H](CCCNC(=N)N)C(=O)N[C@H](C(=O)NCC(=O)N[C@@H](CCSC)C(=O)NCC(=O)N[C@@H](CCC(=O)O)C(=O)N[C@@H](C)C(=O)N[C@@H](C)C(=O)O)C(C)C)[C@@H](C)O

1: 0.015; 2: 8.65

# credit: paper PMC3794980
